# Ki listing for each entry below
Target: 5-hydroxytryptamine receptor 2C (Homo sapiens)
Sequence (P28335 whole entry): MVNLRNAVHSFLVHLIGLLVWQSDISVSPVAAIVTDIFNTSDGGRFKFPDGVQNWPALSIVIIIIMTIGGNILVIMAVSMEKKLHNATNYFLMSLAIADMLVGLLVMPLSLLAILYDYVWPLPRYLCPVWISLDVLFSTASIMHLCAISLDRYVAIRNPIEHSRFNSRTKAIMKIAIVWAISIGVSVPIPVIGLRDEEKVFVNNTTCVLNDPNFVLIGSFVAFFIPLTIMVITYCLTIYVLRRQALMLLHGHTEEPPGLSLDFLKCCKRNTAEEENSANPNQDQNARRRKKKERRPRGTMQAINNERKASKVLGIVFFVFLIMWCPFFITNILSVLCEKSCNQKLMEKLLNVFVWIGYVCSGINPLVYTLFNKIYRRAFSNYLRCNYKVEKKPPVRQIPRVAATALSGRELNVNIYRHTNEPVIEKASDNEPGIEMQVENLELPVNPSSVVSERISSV
State just the number; it will be interpreted in nM.

Below are worked cases with known answers.
molecule: CNC(=O)c1ccc2c3c1C(CC(F)F)CN3CCNC2 (racemic)
Ki, nM: 30

molecule: CSCCNC(=O)c1ccc2c3c1CCN3CCNC2
Ki, nM: 84

molecule: O=C(NCCF)c1ccc2c3c1CCN3CCNC2
Ki, nM: 249

molecule: CS(=O)(=O)CCNC(=O)c1ccc2c3c1CCN3CCNC2
Ki, nM: 12600

molecule: O=C(NCC(F)F)c1ccc2c3c1C(CC(F)(F)F)CN3CCNC2 (racemic)
Ki, nM: 25

molecule: CCOCCNC(=O)c1ccc2c3c1CCN3CCNC2
Ki, nM: 43

molecule: CC(C)OCCNC(=O)c1ccc2c3c1CCN3CCNC2
Ki, nM: 75

molecule: O=C(NCCOc1ccccc1)c1ccc2c3c1CCN3CCNC2
Ki, nM: 18

Ask: What measured Ki goes with COC(C)CNC(=O)c1ccc2c3c1CCN3CCNC2 (stereo not given) ?
Reply: 348

Ask: What measured Ki goes with `CCSCCNC(=O)c1ccc2c3c1CCN3CCNC2` ?
Reply: 29
